From: patent US20230399320A1

Molecular target: Cp149 (truncated form of a HBV core protein) (Hepatitis B virus genotype D subtype ayw, UniProt P03146)
Construct: Cp149 (amino acids 1-149) is a truncated form of a HBV core protein; histidine tag (cleaved yes); made in house; host or cells: Escherichia coli BL21(DE3)
Sequence (P03146 1-149): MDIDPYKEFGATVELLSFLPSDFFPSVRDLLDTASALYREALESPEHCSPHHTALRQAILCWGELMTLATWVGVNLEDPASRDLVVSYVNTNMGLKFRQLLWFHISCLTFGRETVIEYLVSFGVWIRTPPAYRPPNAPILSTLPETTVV
Assay: Protein based assay: immunoblot analysis of in vitro HBV capsid assembly
Assay type: biochemical
Settings: read-out: Protein based assay (% inhibition), 0.1 μM
Measurement kind: inhibition at 0.1 µM (%)
A number alone suffices; assume %.

Consider the following illustrative entries.
| Compound | Measurement kind | Recorded value |
| --- | --- | --- |
| COc1ncccc1C(=O)NCCNc1cc(Nc2ccc(N3CCOCC3)cc2)nc([S+](C)[O-])n1 (centres unmarked) | inhibition at 0.1 µM | 43 |
| COc1ncccc1C(=O)NCCNc1cc(Nc2ccccc2)nc([S+](C)[O-])n1 (centres unmarked) | inhibition at 0.1 µM | 14 |
| CS(=O)(=O)c1nc(Nc2cc(F)c(F)c(F)c2)cc(NC2CCNCC2)n1 [Compound 26e] | inhibition at 0.1 µM | 16 |

Give the value of inhibition at 0.1 µM reported for the following: COc1ncccc1C(=O)NCCNc1cc(Nc2ccc(F)cc2)nc([S+](C)[O-])n1 (centres unmarked)
32

# return recorded inhibition at 0.1 µM for input CS(=O)(=O)c1nc(Nc2ccc(F)c(Br)c2)cc(NC2CCNCC2)n1 [Compound 26g]
7

Determine from records and report inhibition at 0.1 µM for CS(=O)(=O)c1nc(Nc2ccc(F)c(Cl)c2)cc(N2CCNCC2)n1 [Compound 26c]
47

Let me know recorded inhibition at 0.1 µM for CS(=O)(=O)c1nc(Nc2ccc(F)c(Br)c2)cc(N2CCNCC2)n1 [Compound 26d] , thanks.
13

Specify reported inhibition at 0.1 µM for the compound shown: CS(=O)(=O)c1nc(Nc2ccc(F)c(Cl)c2)cc(N2CCC(N)CC2)n1 [Compound 26i]
52
